The values you see were collected from patent US12011444B2.

target: EP4 (Homo sapiens (Human)); assay: hEP4 cAMP assay (BT549 breast cancer cells, HTRF cAMP); type: cell-based; conditions: antagonistic activity; mean values where measured multiple times
Sequence (P35408 whole entry): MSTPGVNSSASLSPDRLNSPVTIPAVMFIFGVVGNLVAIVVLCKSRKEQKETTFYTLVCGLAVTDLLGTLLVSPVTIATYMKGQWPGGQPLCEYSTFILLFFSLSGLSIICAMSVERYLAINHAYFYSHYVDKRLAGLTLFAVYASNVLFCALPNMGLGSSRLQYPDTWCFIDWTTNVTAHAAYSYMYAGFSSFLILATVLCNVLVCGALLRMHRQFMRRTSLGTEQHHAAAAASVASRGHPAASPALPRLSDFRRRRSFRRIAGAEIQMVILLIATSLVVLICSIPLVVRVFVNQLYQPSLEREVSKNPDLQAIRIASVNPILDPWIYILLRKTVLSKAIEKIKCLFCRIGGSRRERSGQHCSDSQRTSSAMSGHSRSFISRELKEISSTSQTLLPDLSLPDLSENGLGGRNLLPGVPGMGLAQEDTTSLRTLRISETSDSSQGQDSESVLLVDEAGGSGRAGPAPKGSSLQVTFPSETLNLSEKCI
// returns false (0) unless IC50 is strictly below 100 nM, in which case true (1)

[[record]]
compound = "CCOc1cc(-c2cc(NCCn3c(Cl)cc4c(OC)ccc(F)c43)ncn2)sc1C(=O)O"
answer_label = "true (1)"

[[record]]
compound = "COc1ccc(F)c2c1cc(C)n2CCNc1cc(-c2ccc3[nH]ccc3c2)ncn1"
answer_label = "true (1)"

[[record]]
compound = "Cc1cc2c(F)ccc(C#N)c2n1CCNc1cc(-c2ccc(C(=O)O)c(CC(C)C)c2)ncn1"
answer_label = "false (0)"

[[record]]
compound = "COc1cc(F)cc2c1cc(C)n2CCNc1cc(-c2ccc(-c3cc(C)no3)cc2)ncn1"
answer_label = "false (0)"

[[record]]
compound = "COc1cc(F)c(F)c2c1cc(C)n2CCNc1cc(-c2ccc(-c3cc(C)no3)cc2)ncn1"
answer_label = "false (0)"

[[record]]
compound = "CCCOc1cc(-c2cc(NCCn3c(C)cc4c(OC)cc(F)cc43)ncn2)cc(Cl)c1C(=O)O"
answer_label = "false (0)"

[[record]]
compound = "COc1ccc(F)c2c1cc(C)n2CCNc1cc(-c2ccc(-c3nnc(C)o3)cc2)ncn1"
answer_label = "false (0)"

[[record]]
compound = "CCNc1cc(-c2cc(NCCn3c(C)cc4ccccc43)ncn2)ccc1-c1nnn[nH]1"
answer_label = "false (0)"

[[record]]
compound = "Cc1cc(-c2ccc(-c3cc(NCCn4c(C)cc5c(C)cc(F)cc54)ncn3)cc2)on1"
answer_label = "false (0)"

[[record]]
compound = "COc1cc(F)cc2c1cc(C)n2CCNc1cc(-c2ccc(-c3nc(C(=O)O)cs3)cc2)ncn1"
answer_label = "true (1)"

[[record]]
compound = "COc1cc(F)cc2c1cc(C)n2CCNc1cc(-c2cc(Cl)c(C(=O)O)c(OCC(F)(F)F)c2)ncn1"
answer_label = "true (1)"

[[record]]
compound = "COc1ccc(F)c2c1cc(C)n2CCNc1cc(-c2ccc(C(=O)O)c(NCC(F)(F)F)c2)ncn1"
answer_label = "true (1)"

[[record]]
compound = "Cc1ccc(F)c2c1cc(C)n2CCNc1cc(-c2ccc(C(=O)O)c(NCC(F)(F)F)c2)ncn1"
answer_label = "false (0)"

[[record]]
compound = "COc1cc(F)cc2c1cc(C)n2CCNc1cc(-c2ccc(-c3ccon3)cc2)ncn1"
answer_label = "false (0)"

[[record]]
compound = "COc1cc(F)cc2c1cc(C)n2CCNc1cc(-c2ccc(-c3ccno3)cc2)ncn1"
answer_label = "false (0)"

[[record]]
compound = "CCCOc1cc(-c2cc(NCCn3c(C)cc4c(C)cc(F)cc43)ncn2)cc(F)c1C(=O)O"
answer_label = "false (0)"

[[record]]
compound = "CCOc1cc(-c2cc(NCCn3c(C)cc4c(C)ccc(F)c43)ncn2)ccc1C(=O)NOCc1ccccc1"
answer_label = "false (0)"

[[record]]
compound = "Cc1cc(F)c(F)c2c1cc(C)n2CCNc1cc(-c2ccc(-c3cnc(N)o3)cc2)ncn1"
answer_label = "false (0)"

[[record]]
compound = "Cc1cc(F)c(F)c2c1cc(C)n2CCNc1cc(-c2ccc(-c3cncn3C)cc2)ncn1"
answer_label = "false (0)"

[[record]]
compound = "CCCC1NC(=O)c2ccc(-c3cc(NCCn4c(C)cc5c(OC)ccc(F)c54)ncn3)cc21 (racemic)"
answer_label = "true (1)"

[[record]]
compound = "CCCOc1cc(-c2cc(NCCn3c(C)cc4c(OC)cc(F)c(F)c43)ncn2)cc(F)c1C(=O)O"
answer_label = "true (1)"

[[record]]
compound = "CCNc1cc(-c2cc(NCCn3c(C)cc4c(OC)ccc(F)c43)ncn2)ccc1-c1nnn[nH]1"
answer_label = "true (1)"

[[record]]
compound = "CNc1nnc(-c2ccc(-c3cc(NCCn4c(C)cc5c(OC)ccc(F)c54)ncn3)cc2)s1"
answer_label = "true (1)"

[[record]]
compound = "COc1cc(F)cc2c1cc(C)n2CCNc1cc(-c2ccc(C(=O)CC#N)cc2)ncn1"
answer_label = "false (0)"

[[record]]
compound = "CCOc1cc(-c2cc(NCCn3c(C)cc4c(Br)cccc43)ncn2)sc1C(=O)O"
answer_label = "true (1)"

[[record]]
compound = "CCOc1cc(-c2cc(NCCn3c(C)cc4c(OC)ccc(F)c43)ncn2)ccc1CNC1CCC1"
answer_label = "false (0)"

[[record]]
compound = "COc1cccc2c1cc(C)n2CCNc1cc(-c2ccc(C(=O)O)c(OC(F)F)c2)ncn1"
answer_label = "false (0)"

[[record]]
compound = "Cc1cc(F)c(F)c2c1cc(C)n2CCNc1cc(-c2cc(Cl)c(C(=O)O)c(OCC(C)C)c2)ncn1"
answer_label = "false (0)"

[[record]]
compound = "CCOc1cc(-c2cc(NCCn3c(C)cc4c(OC)cc(F)c(F)c43)ncn2)ccc1C(=O)O"
answer_label = "true (1)"

[[record]]
compound = "CCCOc1cc(-c2cc(NCCn3c(C)cc4c(OC)cc(F)c(F)c43)ncn2)cc(Cl)c1C(=O)O"
answer_label = "true (1)"

[[record]]
compound = "Cc1ccc(F)c2c1cc(C)n2CCNc1cc(-c2ccc3[nH]ccc3c2)ncn1"
answer_label = "true (1)"

